- System: CCRF-CEM
- test-summary: NCI tumour cell line growth inhibition, 48 h
Active and inactive are the calls of the source. Rule as the data show it: active = GI50 up to about 1.1 µM and inactive = higher.
reported-endpoint: GI50

| compound | reported-endpoint | reading |
| --- | --- | --- |
| Cc1ccc(S(=O)(=O)NC(=N)N(C)N=O)cc1 | GI50 | > 100 µM (inactive) |
| O=C1CSC(=S)N1c1ccco1 | GI50 | > 100 µM (inactive) |
| CC1=NN(C(=O)CC(=O)Nc2ccccc2)C(=O)C1/N=N/c1ccc(C(=O)O)cc1 (stereo not given) | GI50 | > 100 µM (inactive) |
| CC(=O)OC(C[C@H](C)[C@@H]1CC[C@]2(C)C3=CCC4C(C)(C)C(=O)CC[C@]4(C)C3CCC12C)C1OC1(C)C (stereo not given in full) | GI50 | 15.9 µM (inactive) |
| COc1ccc(/C=C(/c2ccccc2)c2c(C)cc(C)c(/C(=C\c3ccc(OC)cc3)c3ccccc3)c2/N=N/c2cc(C)cc(C)c2)cc1 | GI50 | 8.49 µM (inactive) |

Exercise: Return GI50 measured with CCRF-CEM given this compound: "c1ccc(CN2C3C4N(Cc5ccccc5)C2C2N(Cc5ccccc5)C(C(N2Cc2ccccc2)N4Cc2ccccc2)N3Cc2ccccc2)cc1"
Solution: 40.1 µM (inactive)

Where do the numbers come from? From ChEMBL document CHEMBL1201862.
